Every entry's value here was drawn from paper PMC10975828.

# study-target: SARS-CoV-2 PLpro (Severe acute respiratory syndrome coronavirus 2, UniProt P0DTD1)
# measurement-notes: SARS-CoV-2 PLpro inhibition assay (fluorescence, 96-well)
# Type: biochemical
# condition-details: PLpro; inhibitor 5 μM, substrate 1 μM, triplicate, 25 °C; read-out: Inhibition at 5 μM (%)
Assign Condition met to entries whose percent inhibition of PLpro at 5 µM meets or exceeds 10%; assign Condition not met to the rest.

Worked examples follow.
>>> category_label("COc1cc2ccnc3c2c(c1O)-c1c-3cccc(OC)c1=O [Compound 23, neo-tatarine]")
"Condition not met"
>>> category_label("CC(C)C(=O)[C@@]1([C@H](C)CC(=O)O)CC[C@@H](C)C(=O)C1 [Compound 19, acoric acid]")
"Condition not met"
>>> category_label("C=C1CC[C@@H]2[C@@](O)(C1)[C@H](C(C)C)CC[C@]2(C)O [Compound 7, calamendiol]")
"Condition met"
>>> category_label("CC(C)C1CCC(C)(O)C2CCC(C)(O)C2C1=O [Compound 1, 1R,5R,7S-guaiane-4R,10R-diol-6-one]")
"Condition not met"
>>> category_label("C=C1CC[C@@H]2[C@@](O)(C1)[C@H](C(C)C)CC[C@@]2(C)O [Compound 6, isocalamendiol]")
"Condition not met"

**Q:** Reported percent inhibition of PLpro at 5 µM at or above 10%? CC(=O)CC[C@@]12CC(=O)O[C@]1(C(C)C)C(=O)C[C@@H]2C [Compound 18, neo-acorane A]
**A:** Condition met

**Q:** Reported percent inhibition of PLpro at 5 µM at or above 10%? CC(C)(O)C[C@H]1CC[C@@]2(C)[C@H](O)CC[C@](C)(O)[C@H]12 [Compound 22, bullatantriol]
**A:** Condition met

**Q:** Reported percent inhibition of PLpro at 5 µM at or above 10%? CC(C)C1CCC(C)(O)C2=C1C(=O)C(C)(O)CC2O (centres unmarked) [Compound 13, menecubebane B]
**A:** Condition met

###

# study-target: UniProtKB P0DTD1
# measurement-notes: SARS-CoV-2 PLpro inhibition assay (fluorescence, 96-well)
# Assay type: biochemical
# condition-details: read-out: Inhibition at 5 μM (%)
observed-property: percent inhibition of PLpro at 5 µM (%)
Form entry: value (%) — number only.

>>> observed_result("C=C1CC[C@@H]2[C@](C)(O)[C@H](O)C[C@H](C(C)C)[C@@]2(O)C1")
22.3

**Q:** Which percent inhibition of PLpro at 5 µM value is on record for "CC1=CC[C@H]2[C@](O)(C1)[C@@H](C(C)C)CC[C@@]2(C)O" ?
**A:** 26.6

**Q:** Which percent inhibition of PLpro at 5 µM value is on record for "CC(C)[C@@H]1CCC(=O)C2=C1[C@H](O)[C@](C)(O)CC2" ?
**A:** 35.3

###

# study-target: SARS-CoV-2 Mpro (Severe acute respiratory syndrome coronavirus 2, UniProt P0DTD1)
# measurement-notes: SARS-CoV-2 Mpro inhibition assay (fluorescence, 96-well)
# Type: biochemical
# condition-details: Mpro; inhibitor 5 μM, substrate 1 μM, triplicate, 25 °C; read-out: Inhibition at 5 μM (%)
percent inhibition at 5 µM: recorded values
Form entry: value (%) — number only.

Known percent inhibition at 5 µM results, listed for orientation:
>>> observed_result("C=C1CC[C@@H]2[C@@](O)(C1)[C@H](C(C)C)CC[C@@]2(C)O")
80.3
>>> observed_result("COc1cc2ccnc3c2c(c1O)-c1c-3cccc(OC)c1=O")
81.5

**Q:** Which percent inhibition at 5 µM value is on record for "C=C1CC[C@@H]2[C@@](O)(C1)[C@H](C(C)C)CC[C@]2(C)O" ?
**A:** 78.6
